Hey, just so you know, these numbers are from patent US20220306744A1.

- assay-target: T1, human PD-1 expressed on cells (CHO TREX human PD1 cell line, full-length human PD-1 sequence) (human, UniProt Q15116 21-288)
- T1 construct: Also used for human PD-1 on Jurkat reporter cells, on PathHunter cells and on PHA-stimulated human CD4+ T cells; also called CHO human PD1 cells; CHO human PD-1 cells
- T1 sequence (Q15116 21-288): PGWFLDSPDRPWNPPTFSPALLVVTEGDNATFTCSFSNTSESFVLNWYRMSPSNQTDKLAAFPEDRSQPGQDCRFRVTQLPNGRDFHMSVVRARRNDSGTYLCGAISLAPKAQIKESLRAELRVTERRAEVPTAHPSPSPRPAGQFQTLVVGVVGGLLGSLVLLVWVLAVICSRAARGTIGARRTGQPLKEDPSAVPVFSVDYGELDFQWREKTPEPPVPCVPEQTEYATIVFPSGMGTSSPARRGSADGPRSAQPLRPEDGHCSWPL
- test-details: worded summary of the screens
readout-type: binding result

- binder: "1.24b (VHH) VHH: QVTLKESGGGLVKPGGSLRLSCAASGFTFSDYDMYWIRQAPGKGLEWVSYISRGGSVTYYADSVKGRFTISRDNAKNALYLQMNSLRAEDMAVYFCATEAPLRLGETPHAAFDIWGQGTMVTVSS"
  readout-type: "binding result"
  result: "binds"
- binder: "1.73a (VHH) VHH: EVQLVESGGGVVRPGGSLRLSCAASGFTFDDYARSWVRQAPGKGLEWVSGITWNGGSTGYADSVKGRFTISRDNAKNSLYLQMNSLRAEDTALYYCVRDKYSYAWSYDGFDIWGQGTMVTVSS"
  readout-type: "binding result"
  result: "binds"
